- tgt: T1, NHERF3_2, Q5T2W1
- T1 sequence (Q5T2W1 129-225, limits assumed, looked up): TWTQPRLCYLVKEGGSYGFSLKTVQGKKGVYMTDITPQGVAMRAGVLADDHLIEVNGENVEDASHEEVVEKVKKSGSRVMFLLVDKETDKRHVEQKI
- measurement description: holdup assay
- Design: key: below the threshold = too weak to quantify, mostly under pKd 3.1 to 4
- condition info: plain residues with an end cap or a label only (N-terminal biotin on a linker: ttds)
readout type: pKd

Recorded results for 5 binders are shown here.
{"columns": ["binder", "pKd"],
 "data": [
  ["SHSSKGETAV [FZD7, O75084]", "below the threshold"],
  ["SGGKRKETLV [NET1, Q7Z628]", "below the threshold"],
  ["PPRQRSETQV [HPV82-E6, Q9IR59]", "below the threshold"],
  ["KLVIKTETTV [RASSF6, Q6ZTQ3]", "below the threshold"],
  ["PSRDRKETSI [RALBP1, Q15311]", "below the threshold"]
]}

State the recorded pKd for every item in the following list.
1. SRSRRRETAL [HPV33-E6, P06427]
2. SSIDLWETAL [SLC15A5, A6NIM6]

OUT:
1: below the threshold; 2: below the threshold
